- TARGET_OR_TEST_SYSTEM: hABHD12 (Homo sapiens, UniProt Q8N2K0)
- Construct: expressed in transfected cells
- Sequence (Q8N2K0 whole entry): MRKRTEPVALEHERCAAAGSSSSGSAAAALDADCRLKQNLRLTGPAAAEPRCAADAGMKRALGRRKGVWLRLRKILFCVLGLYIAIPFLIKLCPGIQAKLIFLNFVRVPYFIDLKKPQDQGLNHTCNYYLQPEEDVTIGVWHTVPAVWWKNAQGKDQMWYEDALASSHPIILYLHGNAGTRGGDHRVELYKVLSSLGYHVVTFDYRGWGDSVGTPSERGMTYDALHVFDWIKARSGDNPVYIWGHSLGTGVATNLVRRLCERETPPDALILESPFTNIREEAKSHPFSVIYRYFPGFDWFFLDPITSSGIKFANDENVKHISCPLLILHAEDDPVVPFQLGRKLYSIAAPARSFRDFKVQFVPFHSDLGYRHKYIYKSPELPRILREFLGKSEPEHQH
- ASSAY_PROTOCOL: ABHD12 activity
- Assay type: biochemical

MOLECULE: Cc1c(C(=O)NN2CCCCC2)nn(-c2ccc(Cl)cc2Cl)c1-c1ccc(Cl)cc1 [SR141716A]
IC50 (µM): 6.1

---

- ASSAY_SETUP: 1 μM
This listing pairs compounds with measured log10 CL microsomes human.
PROPERTY_MEASURED: log10 CL microsomes human (log10 of the value in µL/min/mg protein)

COMPOUND: CN1CCCC[C@@H]1Cn1cc(C(=O)c2cc([N+](=O)[O-])ccc2I)c2ccccc21 [(R)-AM1241]
log10 CL microsomes human: 2.48
--
COMPOUND: Cc1c(C(=O)c2cccc3ccccc23)c2cccc3c2n1[C@H](CN1CCOCC1)CO3
log10 CL microsomes human: 2.29
--
COMPOUND: CCCn1c(C)c(C(=O)c2cccc3ccccc23)c2ccccc21
log10 CL microsomes human: 1.61
--
COMPOUND: CN1CCCC[C@H]1Cn1cc(C(=O)c2cc([N+](=O)[O-])ccc2I)c2ccccc21 [(S)-AM1241]
log10 CL microsomes human: 2.18
--
COMPOUND: CN1CCCCC1Cn1cc(C(=O)c2cc([N+](=O)[O-])ccc2I)c2ccccc21 (racemic) [(rac)-AM1241]
log10 CL microsomes human: 2.05
--
COMPOUND: Cc1ccc2c(c1)Cc1c(C(=O)NN3CCCCC3)nn(-c3ccc(Cl)cc3Cl)c1-2
log10 CL microsomes human: 1.11
--
COMPOUND: COc1ccc(C(=O)c2c(C)n(CCN3CCOCC3)c3cc(I)ccc23)cc1
log10 CL microsomes human: 1.91
--
COMPOUND: CCCCCCC(C)(C)c1cc(OC)c(C2=C[C@H]3CC[C@]2(CO)C3(C)C)c(OC)c1
log10 CL microsomes human: 1.95
--
COMPOUND: CCCC(C)(C)c1ccc2c(c1)OC(C)(C)[C@@H]1CC=C(C)C[C@@H]21
log10 CL microsomes human: 1.58
